Field: inhibition. Provide a value for each of the compounds that follow.
Target: Serine protease HTRA1 (Homo sapiens) (UniProt Q92743)
Sequence (Q92743 whole entry, looked up): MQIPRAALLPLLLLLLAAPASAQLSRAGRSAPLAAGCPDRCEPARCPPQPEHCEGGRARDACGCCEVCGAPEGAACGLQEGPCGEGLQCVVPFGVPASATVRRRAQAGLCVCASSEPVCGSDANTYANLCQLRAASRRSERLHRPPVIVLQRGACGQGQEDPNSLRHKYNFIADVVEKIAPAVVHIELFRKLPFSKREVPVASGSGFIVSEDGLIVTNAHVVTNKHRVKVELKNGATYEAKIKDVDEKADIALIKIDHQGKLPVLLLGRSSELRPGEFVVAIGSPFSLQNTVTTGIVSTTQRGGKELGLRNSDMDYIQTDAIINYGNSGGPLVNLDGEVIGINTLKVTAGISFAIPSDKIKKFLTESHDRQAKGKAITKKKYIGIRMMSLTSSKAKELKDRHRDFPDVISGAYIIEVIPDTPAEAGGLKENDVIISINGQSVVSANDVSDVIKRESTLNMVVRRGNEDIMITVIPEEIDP
Assay: inhibition of human HTRA1 peptidase – biochemical, fluorescence polarization, HTS, primary screen (AID 504803);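 also: 0% = enzyme with DMSO and 100% = wells lacking enzyme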
Conditions: recombinant HTRA1, FP-rhodamine activity-based probe, at 5.96 µM, active compounds read high
The campaign covered roughly 340,000 compounds. About 1,700 (0.5%) were called active. For the sample, actives were picked, then their nearest neighbours and some compounds at random.

Here are 2 compounds together with their reported answers.
compound	tgt	inhibition
COc1ccc(C=C2CCC3C(CCCC34OCCO4)C2=O)cc1 (stereo unspecified)	Serine protease HTRA1 (Homo sapiens) (UniProt Q92743)	-8.69% (inactive)
O=C(N/N=C/c1ccc(O)c(O)c1)C1c2ccccc2Oc2ccccc21	Serine protease HTRA1 (Homo sapiens) (UniProt Q92743)	68.8% (active)

Would you be so kind as to report inhibition for each listed record?
1. CCOc1ccc(CCNC(=O)COC(=O)c2ccc(C)c(S(=O)(=O)N3CCOCC3)c2)cc1OCC
2. C[C@H]1CN([C@@H](C)CO)C(=O)CCCn2cc(nn2)CO[C@@H]1CN(C)S(=O)(=O)c1ccc(-n2cccn2)cc1
3. CSc1ncnc2c1ncn2CCCNCc1cccs1

## Result
1. -2.04% (inactive)
2. -3.1% (inactive)
3. 3.07% (inactive)

Would you be so kind as to report inhibition for each listed record?
1. Nc1ccc(C(=O)Nc2ccccc2N)cc1
2. O=C(NCCN1CCOCC1)c1ccc2c(c1)N(Cc1cccc(Cl)c1)C(=O)c1ccccc1S2(=O)=O
3. CC1CCCC(C)N1C(=O)COC(=O)c1ccccc1C(=O)c1ccccc1 (stereo unspecified)
4. C[C@@H]1CN([C@@H](C)CO)C(=O)c2cc(Br)cnc2O[C@H]1CN(C)Cc1ccc(-c2ccccc2)cc1
5. Cc1ccc(Nc2ccccc2N)cc1
6. Nc1cc(=O)c2[nH]cnc2[nH]1
7. COc1ccc2c(c1)CCCO[C@]21O[C@H](CCO)C[C@H](O)[C@H]1O

## Result
1: 6.6% (inactive); 2: -8.45% (inactive); 3: 0.04% (inactive); 4: -13.1% (inactive); 5: 47.8% (active); 6: -44.6% (inactive); 7: -2.62% (inactive)

Would you be so kind as to report inhibition for each listed record?
1. CCN(CC)C(=O)C1=C(C)N(Cc2ccc(F)cc2)C(=O)C(CC(=O)NC2CCCC2)C1 (stereo unspecified)
2. CNC(=S)NNC(=O)c1oc2nc(-c3ccccc3)cc(-c3ccco3)c2c1N
3. CN(Cc1c(F)cccc1Cl)C(=O)COC(=O)Cn1cnc2ccccc2c1=O
4. CNC(=S)NNC(=O)c1cccn(Cc2ccccc2)c1=O
5. CC(=O)Oc1cccc(N2C(=O)CC(Nc3ccc(N4CCOCC4)cc3)C2=O)c1 (stereo unspecified)
6. O=C1CC(NNc2ccccc2)C(=O)N1c1cccc(Cl)c1 (stereo unspecified)
7. C[C@H](CO)N1C[C@H](C)[C@H](CN(C)C(=O)Nc2ccc3c(c2)OCO3)Oc2ncc(Br)cc2C1=O

## Result
1. 1.89% (inactive)
2. 51.7% (active)
3. 2.48% (inactive)
4. 3.18% (inactive)
5. 51.5% (active)
6. -8.57% (inactive)
7. -0.29% (inactive)

Would you be so kind as to report inhibition for each listed record?
1. CC1=C(C(=O)N2CCOCC2)CC(CC(=O)NCc2cccc3ccccc23)C(=O)N1CCC1=CCCCC1 (stereo unspecified)
2. COc1ccc(N2CCN(C3CC(=O)N(c4ccc5c(c4)OCCO5)C3=O)CC2)cc1 (stereo unspecified)

## Result
1: -3.43% (inactive); 2: 4.17% (inactive)

* * *

Biological target: Serine protease HTRA1 (Homo sapiens) (UniProt Q92743)
Assay: inhibition of human HTRA1 peptidase – biochemical, fluorescence polarization, HTS, primary screen (AID 504803);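 also: 0% = enzyme with DMSO and 100% = wells lacking enzyme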
Details: recombinant HTRA1, FP-rhodamine activity-based probe, at 5.96 µM
Screen size: about 340,000 compounds; about 1,700 (0.5%) were called active. Rule as the data show it: active = inhibition above about 36%; inactive = the rest. What follows is part of a selection rich in actives, with near analogues and random picks from the rest.
Pick one and only one: active, inactive

Sample answers from the record:
compound	label
Oc1ccc(N=Cc2sc3ccccc3c2Cl)cc1	active
Cc1[nH]c2ccccc2c1C(=O)C(=O)NCc1nnnn1-c1cccc(F)c1	inactive
COc1ccc(-c2csc(Nc3cccc(C)n3)n2)cc1OC	inactive
CC(=O)n1c(C=Nc2ccccc2)c(O)c2ccccc21	inactive

## Task Identify the outcome logged in this assay for the compound shown: CC(=O)Nc1ccc(S(=O)(=O)N2CCCC2C(=O)O)cc1 (stereo not given)
## Result inactive

## Task Repeat with COc1ccc(OC)c(-c2csc(NC(=O)C3=NNC(=O)CC3)n2)c1
## Result inactive

## Task Repeat with C=C(C)CNC(=S)N/N=C/c1ccccc1OCC(=O)O
## Result inactive

## Task Repeat with Cc1cccc(N2CCN(c3ccc(NC(=O)/C=C\C(=O)O)cc3)CC2)c1
## Result active

## Task Repeat with CCN(CC)c1ccc(/C=N/NC(=O)c2cnccn2)c(O)c1
## Result inactive

## Task Repeat with COc1ccccc1-c1n[nH]nc1C1=CC(=O)CC(C)(C)C1
## Result inactive

* * *

Molecular target: Serine protease HTRA1 (Homo sapiens)
Test: inhibition of human HTRA1 peptidase – biochemical, fluorescence polarization, HTS, primary screen (AID 504803);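 also: 0% = enzyme with DMSO and 100% = wells lacking enzyme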
Conditions: recombinant HTRA1, FP-rhodamine activity-based probe, at 5.96 µM, active compounds read high
The campaign covered roughly 340,000 compounds. About 1,700 (0.5%) were called active. The list comes from a sample in which actives are over-represented; it also holds close analogues and randomly drawn compounds.
valueType: inhibition (%)
Answers are plain numbers, in %.

Here are 4 compounds together with their reported answers.
compound	inhibition (%)
Cc1cc(C(=O)OCC(=O)N2c3ccccc3NC(=O)C2(C)C)c(C)n1-c1ccccc1	-25.2
Brc1ccccc1C1Nc2cccc3cccc(c23)N1	59.2
Cc1ccc(NC(=O)CCNC(=O)c2ccc([N+](=O)[O-])cc2)cc1S(=O)(=O)N1CCOCC1	3.34
CCOc1ccc(/C=N/NC(=O)CSc2ccccn2)cc1O	9.01

Would you be so kind as to report inhibition for each listed record?
1. CC(OC(=O)c1ccc(NC(=O)CC#N)cc1)C(=O)Nc1ccc(S(=O)(=O)N2CCCC2)cc1 (stereo not drawn)
2. COc1ccc(NS(=O)(=O)c2cc(NC(=O)COc3ccccc3F)ccc2OC)cc1
3. Cn1c(SCC(=O)N/N=C/c2ccc(O)c(O)c2)nc2ccccc21
4. CCn1c(SCC(=O)N/N=C/c2ccncc2)nc2ccccc21

## Result
[-20, -13.3, 41.2, 4.65]

Would you be so kind as to report inhibition for each listed record?
1. Cc1cc(-c2csc(N)n2)c(C)n1Cc1ccccc1
2. CCOC(=O)C1=C(O)/C(=C/c2cc(C)n(-c3ccccc3)c2C)N=C1C
3. N#Cc1ccc(OCC(=O)Nc2nc(-c3ccccn3)cs2)cc1
4. COc1ccc(C(=O)Nc2cccc(/C=C(/CCC(=O)O)c3nc4ccccc4s3)c2)cc1
5. COc1ccc(S(=O)(=O)N(C)C[C@H]2OCc3cnnn3CCCC(=O)N([C@H](C)CO)C[C@H]2C)cc1

## Result
[37.6, 20.9, 19.1, -96.2, 0.5]

* * *

Target: Serine protease HTRA1 (Homo sapiens)
Assay: inhibition of human HTRA1 peptidase – biochemical, fluorescence polarization, HTS, primary screen (AID 504803);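 also: 0% = enzyme with DMSO and 100% = wells lacking enzyme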
Details: recombinant HTRA1, FP-rhodamine activity-based probe, at 5.96 µM
About 1,700 (0.5%) of roughly 340,000 compounds were called active. No stated cut-off is given here; in the data, active means inhibition above about 36%; inactive means the rest. This is one part of a sample in which actives are shown more often than they occur.
Pick one and only one: active, inactive

compound	label
Clc1ccc(CSc2nnc3c(n2)[nH]c2ccccc23)cc1	inactive
c1ccc(CSc2nnc(-c3ccco3)c(-c3ccco3)n2)cc1	active
O=C1CSC(=S)N1/N=C/c1ccc(O)c([N+](=O)[O-])c1	inactive

## Task Identify the outcome logged in this assay for the compound shown: NC(=O)NC(=O)C(OC(=O)CCNS(=O)(=O)c1ccccc1)c1ccccc1 (stereo not given)
## Result active

## Task Repeat with O=C1NC(Cc2ccccc2)c2nc3ccc(Br)cc3c(=O)n2-c2cc3ccccc3cc21 (stereo not given)
## Result inactive

* * *

Molecular target: Serine protease HTRA1 (Homo sapiens) (UniProt Q92743)
Experiment: inhibition of human HTRA1 peptidase – biochemical, fluorescence polarization, HTS, primary screen (AID 504803);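 also: 0% = enzyme with DMSO and 100% = wells lacking enzyme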
Settings: recombinant HTRA1, FP-rhodamine activity-based probe, at 5.96 µM
About 1,700 (0.5%) of roughly 340,000 compounds were called active. Cut-off read from the data, not from the text of the source: active = inhibition above about 36%; inactive = the rest. Only a selection was taken, and actives are over-represented in it overall.
Pick one and only one: yes (1) for active, no (0) for inactive

Sample answers from the record:
compound	label
O=C(NCc1ccccc1)C1CNCC(C(=O)NCc2ccccc2)C1 (stereo not given)	no (0)
Cc1cc(=O)oc2cc(OCC(=O)N3CCN(c4ccc(F)cc4)CC3)c(Cl)cc12	no (0)
CCOC(=O)C=Cc1ccc(C(=O)OCC)[nH]1	no (0)
Oc1ccc(-c2nc3ccccc3nc2-c2ccc(O)cc2O)c(O)c1	no (0)
Cc1cc2cc3n(c2nn1)N=C(Cl)CC3	no (0)
Cc1cc(Nc2ccccc2)n(C(=O)c2ccc(N)cc2)n1	no (0)

## Task Identify the outcome logged in this assay for the compound shown: Cc1ccn2c(-c3csc(Nc4ccc(C(=O)O)cc4)n3)c(C)nc2c1
## Result no (0)
